Experiment: Selectivity index, ratio of IC50 for CHO cells to IC50 for chloroquine-sensitive Plasmodium falciparum D10
Format: toxicity, cell-based
Details: hamster, read-out: Ratio IC50
Reported values of selectivity ratio for individual entries
Give a plain numeric answer without units written out.

Here's what some known entries look like.
• Cc1cccc2nccc(NCCCNCCCNc3ccnc4cccc(C)c34)c12 = 1024
• Clc1ccc2c(NCCNCCNCCNc3ccnc4cc(Cl)ccc34)ccnc2c1 = 93
• c1ccc2c(c1)nc(NCCCNCCNc1nc3ccccc3n3cccc13)c1cccn12 = 14
• CN(CCCNc1ccnc2cc(Cl)ccc12)CCCNc1ccnc2cc(Cl)ccc12 = 211
• CN(CCCNc1nc2ccccc2n2cccc12)CCCNc1nc2ccccc2n2cccc12 = 39

Given the entry c1ccc2c(c1)nc(NCCNCCNCCNc1nc3ccccc3n3cccc13)c1cccn12 , report its measured selectivity ratio.
4.5

Given the entry Clc1ccc2c(NCCCNCCNc3ccnc4cc(Cl)ccc34)ccnc2c1 , report its measured selectivity ratio.
47

Given the entry Cc1cccc2nccc(NCCCNCCNCCCNc3ccnc4cccc(C)c34)c12 , report its measured selectivity ratio.
187

Given the entry c1ccc2c(c1)nc(NCCCNCCCNc1nc3ccccc3n3cccc13)c1cccn12 , report its measured selectivity ratio.
51

Given the entry Clc1ccc2c(NCCCNCCNCCCNc3ccnc4cc(Cl)ccc34)ccnc2c1 , report its measured selectivity ratio.
102
